Target: T1, human C5a (human, UniProt P01031 678-751, biotinylated in the U937/C5aR ligand blocking assay (site not stated))
T1 sequence: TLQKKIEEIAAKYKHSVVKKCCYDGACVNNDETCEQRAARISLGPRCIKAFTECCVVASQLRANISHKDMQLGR
Assay: cell-based or functional assay
Entries and their measured Inhibition of calcium influx IC50 (nM), FLIPR, Experiment #2 follow.
Observation type: Inhibition of calcium influx IC50 (nM), FLIPR, Experiment #2

{"Binder": "16D10 (humanized anti-C5a IgG4 antibody) (antibody, V domains shown, also called WT (16D10); WT) VH: QVQLVQSGAEVKKPGSSVKVSCKASGYTFTDHIIHWMRQAPGQGLEWMGYIYPREGWTNYNENFKGRVTITADKSTSTAYMELSSLRSEDTAVYYCARERNLEYFDYWGQGTTVTVSS VL: DIVLTQSPASLAVSPGQRATITCKASQSVDYEGFNYMNWYQQKPGQPPKLLIYAASNLDSGVPARFSGSGSGTDFTLTINPVEAEDTANYYCQQSNEDPYTFGGGTKVEIKR", "Measured value": "0.135 nM"}
{"Binder": "N97H (humanized anti-C5a IgG4 antibody) (antibody, V domains shown, Carries F29H and N97H in VH and Y96H in VL (Kabat)) VH: QVQLVQSGAEVKKPGSSVKVSCKASGYTHTDHIIHWMRQAPGQGLEWMGYIYPREGWTNYNENFKGRVTITADKSTSTAYMELSSLRSEDTAVYYCARERHLEYFDYWGQGTTVTVSS VL: DIVLTQSPASLAVSPGQRATITCKASQSVDYEGFNYMNWYQQKPGQPPKLLIYAASNLDSGVPARFSGSGSGTDFTLTINPVEAEDTANYYCQQSNEDPHTFGGGTKVEIKR", "Measured value": "0.138 nM"}
{"Binder": "E54H (humanized anti-C5a IgG4 antibody) (antibody, V domains shown, Carries F29H and E54H in VH and Y96H in VL (Kabat) relative to 16D10) VH: QVQLVQSGAEVKKPGSSVKVSCKASGYTHTDHIIHWMRQAPGQGLEWMGYIYPRHGWTNYNENFKGRVTITADKSTSTAYMELSSLRSEDTAVYYCARERNLEYFDYWGQGTTVTVSS VL: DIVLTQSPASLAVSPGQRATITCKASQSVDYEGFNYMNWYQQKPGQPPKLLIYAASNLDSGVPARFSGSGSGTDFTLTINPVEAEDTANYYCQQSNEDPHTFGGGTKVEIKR", "Measured value": "0.154 nM"}
{"Binder": "N92H (humanized anti-C5a IgG4 antibody) (antibody, V domains shown, Carries F29H in VH and N92H and Y96H in VL (Kabat); also called N92H antibody) VH: QVQLVQSGAEVKKPGSSVKVSCKASGYTHTDHIIHWMRQAPGQGLEWMGYIYPREGWTNYNENFKGRVTITADKSTSTAYMELSSLRSEDTAVYYCARERNLEYFDYWGQGTTVTVSS VL: DIVLTQSPASLAVSPGQRATITCKASQSVDYEGFNYMNWYQQKPGQPPKLLIYAASNLDSGVPARFSGSGSGTDFTLTINPVEAEDTANYYCQQSHEDPHTFGGGTKVEIKR", "Measured value": "0.145 nM"}
